System: NCI/ADR-RES ovarian
Assay: NCI-60 one-dose screen, 48 h
Settings: 10 µM unless noted
Procedure: Growth inhibition of the NCI/ADR-RES human […] tumor cell line is measured as a screen for anti-cancer activity. Cells are grown in 96 well plates and exposed to the test compound for 48 hours. Compounds are tested at a single concentration, which is 10^-5 M for most compounds. The reported endpoint is percent growth (GI% or GIPRCNT), where numbers from 0 - 100% represent growth inhibition, and numbers from -100% - 0 represent cell death. For example, a value of 40 represents 60% growth inhibition. […]
The panel holds about 83,000 compounds, 20% with a hit somewhere; the sample as a whole holds those more often. Active and inactive are the calls of the source. The calls were made as follows: active = growth percent below 10; inactive = the rest.
Parameter call: string, one of active, inactive

Ask | Which outcome was assigned to "CCCCNc1cc(-c2cn[nH]c2-c2cc(C)cc(OC)c2)nc(-c2cccnc2)n1" in this test?
Reply | inactive

Ask | // outcome(item) with item = "CCOC(=O)c1c(C)c2c(n1Cc1ccccc1)CSCC2=O"
Reply | active

Ask | I'd appreciate the recorded outcome for "CC(=C(c1ccc(OCCN2CCCCC2)cc1)c1ccc(OCCN2CCCCC2)cc1)c1ccc(Cl)cc1" from this test.
Reply | active

Ask | Tell me the assay call for "COc1ccc(CNc2c3ccccc3nc3ccccc23)c(OC)c1" please.
Reply | inactive

Ask | # outcome recorded in this test, key = "CC1(C)OB(O)c2cc(-c3nc4ccc5[nH]ncc5c4c4c3CCCC4)ccc21"
Reply | inactive

Next, consider the following compound.
Ask | Test call, this compound: "O=C1c2ccccc2C(=O)c2c1c(C(=O)NCc1ccccc1)c1ccccn21"
Reply | inactive

---

Tested on: RPMI-8226 leukemia
Experiment: NCI-60 one-dose screen, 48 h
Conditions: 10 µM unless noted
Experimental: Growth inhibition of the RPMI-8226 human tumor cell line is measured as a screen for anti-cancer activity. Cells are grown in 96 well plates and exposed to the test compound for 48 hours. Compounds are tested at a single concentration, which is 10^-5 M for most compounds. The reported endpoint is percent growth (GI% or GIPRCNT), where numbers from 0 - 100% represent growth inhibition, and numbers from -100% - 0 represent cell death. For example, a value of 40 represents 60% growth inhibition. […]
This is part of a sample that, as a whole, favours compounds with a hit. Of some 83,000 tested, about 20% had one in any assay. Active and inactive are the calls of the source. The calls were made as follows: active = growth percent below 10; inactive = the rest.
Outcome field: choose from active, inactive

Solved cases below.
Ask | Any idea what this test logged for "CN1CCN(CC(=O)Nc2ccc3ncnc(Nc4ccc(Oc5cccc(C(F)(F)F)c5)c(Cl)c4)c3c2)CC1" ?
Reply | active

Ask | I would be grateful if you could indicate the recorded call for "CCNC(=O)Oc1ccc(/C(=C(/CC)Cc2ccccc2)c2ccc(OCCN3CCCC3)cc2)cc1" .
Reply | inactive

Ask | For this compound, state the assay outcome: "COc1ccc(C#Cc2ccc(=O)oc2-c2cc(OC)c(OC)c(OC)c2)cc1O"
Reply | inactive

***
Ask | Outcome logged for "O=C1/C(=C/c2ccccc2F)CN(C(=O)C(Cl)Cl)C/C1=C\c1ccccc1F" in this assay:
Reply | active

Ask | Query: recorded result category for "Fc1ccc2[nH]cc(-c3nc(-c4c[nH]c5ccncc45)cs3)c2c1" in this test
Reply | active

Ask | In this assay, the call recorded for "C/C(=N\O)c1ccc(NC(=O)CSc2nnc(-c3cc(-c4ccc(S(N)(=O)=O)cc4)nc4ccccc34)n2-c2ccccc2)cc1" was what?
Reply | inactive

Ask | So what was the verdict on "[2H]C([2H])([2H])Oc1ccc(F)cc1/C=C/C(=O)/C=C(/C=C/c1cc(F)ccc1OC([2H])([2H])[2H])OB(F)F" in this test?
Reply | inactive

Ask | Status in this test for "O=C(/C=C(O)/C=C/c1cccc2[nH]ccc12)/C=C/c1cccc2[nH]ccc12" ?
Reply | active

Ask | Dear all, I need the recorded test outcome for "Cn1ccc(=O)nc1" , thank you.
Reply | inactive

---

Test system: HCT-116 colon
Assay: NCI-60 one-dose screen, 48 h (100 = growth as untreated, 0 = no growth, -100 = all killed)
Conditions: 10 µM unless noted
Compounds without any hit were thinned out: in the full panel of roughly 83,000, 20% have a hit. Activity calls are given as the source filed them. The calls were made as follows: active = growth percent below 10; inactive = the rest.
MEASURE_NAME: growth

Examples with answers:
Ask | Give growth; test system HCT-116 colon; compound "O=C(CN1CCN(c2cc3c(cc2F)c(=O)c(C(=O)O)cn3C2CC2)CC1)N/N=C/c1ccco1"
Reply | 97.1% (inactive)

Ask | State growth (HCT-116 colon) of "C#CCn1cnc2cnc(Nc3cccc(NC(=O)C=C)c3)nc21" .
Reply | 86.4% [6.25 µM] (inactive)

Ask | Give growth for this entry on HCT-116 colon: "CCOC(=O)c1ccccc1-c1c2ccc(=[N+](C)C)cc-2oc2cc(N(C)C)ccc12"
Reply | 4.32% (active)

Ask | Using HCT-116 colon as the test system, report measured growth of "Cc1ccc(C)c2c(C)c(C(=O)Nc3cccc(-n4cccn4)c3)oc12" .
Reply | 50.7% [50 µM] (inactive)

***
Ask | Provide the reported growth (system: HCT-116 colon) for "CN1CCN(CCCOc2cccc3nc(Nc4ccc(F)c(F)c4)ccc23)CC1"
Reply | -41.2% (active)

Ask | Please report the measured growth for "O=C(NNC(=O)c1nc2cc(F)ccc2n2cccc12)c1cnccn1" tested on HCT-116 colon.
Reply | 32.4% (inactive)

Ask | Provide measured growth on HCT-116 colon for COc1ccc(CCN(CC(=O)N(CC(N)=O)C2CCC[C@@H]2OCc2ccccc2)C(=O)CN(C(=O)CN(CCc2ccc(Cl)cc2)C(=O)CN(C(=O)CN(C)Cc2ccccc2F)[C@H](C)C2CCCCC2)[C@H](C)C2CCCCC2)cc1OC (stereo partly drawn) please.
Reply | 22.4% (inactive)

Ask | Lab note: record growth of "CC1=C(C(=O)Nc2nc(-c3ccc(Cl)cc3)cs2)[C@H](c2ccc(O)cc2)NC(=O)N1" tested on HCT-116 colon.
Reply | 95.4% (inactive)

---

Test system: A498 renal
Test: NCI-60 one-dose screen, 48 h (100 = growth as untreated, 0 = no growth, -100 = all killed)
Conditions: 10 µM unless noted
Compounds without any hit were thinned out: in the full panel of roughly 83,000, 20% have a hit. Active and inactive are the calls of the source. How the source made its calls: active means growth percent below 10; inactive means the rest.
MEASURE_NAME: growth

Ask | Input "CCCCNC(=O)c1cc([N+](=O)[O-])cc(C2CCCCC2)c1O" , output reported growth.
Reply | 21.5% (inactive)

Ask | Tell me growth reported for "Cc1cc2c(cc1C)N(C(=O)CCl)CC(=O)N2"
Reply | 82.9% (inactive)

Ask | Provide measured growth value, entry: "COc1ccc(/C=C/C(=O)c2ccc(NC(=O)CSc3nc4c([nH]3)c(=O)n(C)c(=O)n4C)cc2)cc1OC"
Reply | 71.7% (inactive)

Ask | Recall and state the measured growth for "CC(=O)O[C@H]1C[C@@H]2C(C)(C)C(=O)CC[C@@]2(C)c2ccc(C(C)C)cc21" .
Reply | 100% (inactive)

Ask | For the compound "Cc1ccc(/C=C(\C#N)n2nnc3cc(F)c(F)cc32)cc1" , give its measured growth value.
Reply | 13% (inactive)

Ask | Return the recorded growth value; entry: CN(C)CCCC1(c2ccc(F)cc2)OCc2cc(-c3ccc4cc[nH]c4c3)ccc21 (stereo not given)
Reply | 81.5% (inactive)

Next:
Ask | Specify growth for "O=C(NNC(=O)c1nc2cc(F)ccc2n2cccc12)c1cnccn1" and stop.
Reply | 19.9% (inactive)

Ask | Give the reported value of growth for this record: "CN(C)S(=O)(=O)Oc1ccc(-c2sc3cc(OS(=O)(=O)N(C)C)ccc3c2C(=O)c2ccc(OCCN3CCCCC3)cc2)cc1"
Reply | 85.2% (inactive)

Ask | Find the measured growth of "COc1ccc(CNc2c3ccccc3nc3ccccc23)c(OC)c1" and report it.
Reply | -11.5% (active)

Ask | State its growth: "NC(=O)c1cnc(Nc2cccc(N)c2)nc1NCCCNC(=O)C1CCC1"
Reply | 90.4% (inactive)

---

System: RPMI-8226 leukemia
Assay: NCI-60 one-dose screen, 48 h
Settings: 10 µM unless noted
About 83,000 compounds went through this panel and 20% of them were active in at least one assay; those are over-represented in the sample as a whole. Activity calls are given as the source filed them. The calls were made as follows: active = growth percent below 10; inactive = the rest.
Use one of these outcomes when replying: active, inactive

Ask | Any idea what this test logged for "C=CCC(CCCC)(C(=O)OCC)C(=O)OCC" ?
Reply | inactive

Ask | Entry "Cc1cccc(Oc2ccc(Nc3ncnc4ccc(NC(=O)CN5CCN(C)CC5)cc34)cc2Cl)c1" : call = ?
Reply | active

Ask | Which result was noted for this compound in the test: "C=C1C(=O)O[C@H]2[C@H]1CC/C(COC(=O)/C=C/C(=O)OC/C1=C/CC[C@@]3(C)O[C@H]3[C@H]3OC(=O)C(=C)[C@@H]3CC1)=C\CC[C@@]1(C)O[C@@H]21"
Reply | active

Ask | Which outcome did this test record for the compound N#Cc1cccc(C2C3=C(COC3=O)N(CCO)c3cc4c(cc32)CCC4)c1 (stereo not given) ?
Reply | inactive

Ask | Identify the outcome logged in this assay for the compound shown: "Nc1[nH]c(=S)nc2oc(-c3ccccc3)c(-c3ccccc3)c12"
Reply | inactive

Ask | Which outcome was entered for the compound "O=C1/C=C/[C@@H](O)[C@@H]2C[C@@H](O)C[C@H]2/C=C/CCC[C@@H](O)CCO1" in this test?
Reply | inactive

Ask | Check the results log: what was the call for "O=C(N=Nc1c(O)[nH]c2ccccc12)Nc1ccc(F)cc1" ?
Reply | inactive

Ask | Per the records of this test, what outcome belongs to "C#CCn1cnc2cnc(Nc3cccc(NC(=O)C=C)c3)nc21" ?
Reply | active

Ask | Please state the recorded outcome for this compound: "CC(=O)/C(=C/c1ccc([N+](=O)[O-])cc1)C(=O)c1ccccc1"
Reply | active

New cases:
Ask | Hi, do you know how N#Cc1cccc(C2C3=C(COC3=O)N(CCO)c3cc4c(cc32)OCO4)c1 (stereo not given) came out in this test?
Reply | inactive
